Data provenance is patent US20180030434A1.

Catalogue of binders with associated pKd
target.under.test: T1, Unizyme-tagged human IL-13 (33-146) (human, UniProt P35225 33-146, ALEXA FLUOR 488 or ALEXA FLUOR 647 succinimidyl ester label in the staining and flow cytometry experiments)
T1 construct: range 33-146; The SPR section says only 'Human IL-13'; also called huIL-13; IL-13 antigen; not shown: Unizyme tag
measurement.description: SPR (Biacore 3000), half-antibody from E. coli periplasmic extract captured by Fab Binder, human IL-13 as analyte, 25 C
Reminder that pKd means the negative base-10 logarithm of the concentration expressed in mol/L.

Known pKd results, listed for orientation:
anti-IL-13 half-antibody framework variant M4L (light chain) (antibody, name in Kabat numbering, V domains shown, Half-antibody) VH: QVTLRESGPALVKPTQTLTLTCTVSGFSLSAYSVNWIRQPPGKALEWLAMIWGDGKIVYNSALKSRLTISKDTSKNQVVLTMTNMDPVDTATYYCAGDGYYPYAMDNWGQGSLVTVSS VL: DIVLTQSPDSLSVSLGERATINCRASKSVDSYGNSFMHWYQQKPGQPPKLLIYLASNLESGVPDRFSGSGSGTDFTLTISSLQAEDVAVYYCQQNNEDPRTFGGGTKVEIK : 10.54
anti-IL-13 half-antibody framework variant F27L (heavy chain) (antibody, name in Kabat numbering, V domains shown, Half-antibody) VH: QVTLRESGPALVKPTQTLTLTCTVSGLSLSAYSVNWIRQPPGKALEWLAMIWGDGKIVYNSALKSRLTISKDTSKNQVVLTMTNMDPVDTATYYCAGDGYYPYAMDNWGQGSLVTVSS VL: DIVMTQSPDSLSVSLGERATINCRASKSVDSYGNSFMHWYQQKPGQPPKLLIYLASNLESGVPDRFSGSGSGTDFTLTISSLQAEDVAVYYCQQNNEDPRTFGGGTKVEIK : 10.47

According to the records, this binder anti-IL-13 half-antibody WT (antibody, V domains shown, Half-antibody (one heavy and one light chain, knobs-into-holes Fc); Expressed in the E. coli periplasm; for SPR captured from periplasmic extract; also called anti-IL-13 WT; Half-Ab) VH: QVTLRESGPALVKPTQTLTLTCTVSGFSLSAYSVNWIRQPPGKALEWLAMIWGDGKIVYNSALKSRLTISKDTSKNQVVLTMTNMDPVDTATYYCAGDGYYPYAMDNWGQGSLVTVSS VL: DIVMTQSPDSLSVSLGERATINCRASKSVDSYGNSFMHWYQQKPGQPPKLLIYLASNLESGVPDRFSGSGSGTDFTLTISSLQAEDVAVYYCQQNNEDPRTFGGGTKVEIK displays pKd of 10.40

According to the records, this binder anti-IL-13 half-antibody framework variant E6Q (heavy chain) (antibody, name in Kabat numbering, V domains shown, Half-antibody) VH: QVTLRQSGPALVKPTQTLTLTCTVSGFSLSAYSVNWIRQPPGKALEWLAMIWGDGKIVYNSALKSRLTISKDTSKNQVVLTMTNMDPVDTATYYCAGDGYYPYAMDNWGQGSLVTVSS VL: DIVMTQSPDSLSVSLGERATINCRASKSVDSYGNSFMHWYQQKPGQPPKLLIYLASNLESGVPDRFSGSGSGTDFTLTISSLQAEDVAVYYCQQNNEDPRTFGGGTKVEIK displays pKd of 10.42
